The values you see were collected from patent US20130224224A1.

Molecular target: T1, human CX3CR1 (human, UniProt P49238 1-355)
T1 construct: overexpressed on CHO, BA/F3 or HEK293T cells; also called huCX3CR1; hCX3CR1
T1 sequence: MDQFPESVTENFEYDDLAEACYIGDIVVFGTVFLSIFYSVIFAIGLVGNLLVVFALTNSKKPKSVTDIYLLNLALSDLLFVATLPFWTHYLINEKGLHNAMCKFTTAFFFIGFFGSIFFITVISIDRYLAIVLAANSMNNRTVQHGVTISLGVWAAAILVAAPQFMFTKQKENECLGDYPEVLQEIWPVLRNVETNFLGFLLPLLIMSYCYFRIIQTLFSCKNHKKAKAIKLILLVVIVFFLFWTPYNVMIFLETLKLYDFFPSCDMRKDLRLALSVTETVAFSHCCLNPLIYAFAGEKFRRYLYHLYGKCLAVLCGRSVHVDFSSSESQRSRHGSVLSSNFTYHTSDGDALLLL
Assay: periplasmic extract, A647-fractalkine competition FACS, CHO-huCX3CR1
readout_kind: % block

[[record]]
binder = "CX3CR1BIIPMP61G3 (VHH, also called 61G03; not shown: C-terminal c-myc and His6 tags) VHH: KVQLVESGGGSMQAGESLRLSCAASGSIFSSNAMAWYRQAPGKQRDLVAAINSVGITKYADSVKGRFTISRDNAKNTVYLQMMSLKPEDTAVYYCTSDPRRGWDTRYWGQGTQVTVSS"
result = "92.1%"

[[record]]
binder = "CX3CR1BIIPMP54B5 (VHH, tested as periplasmic extract; also called CX3CR1BII54B5; not shown: C-terminal c-myc and His6 tags) VHH: EVQLVESGGGSVQAGESLRLSCAASGSIFSSNAMAWYRQAPGKQRDLVAGINSVGITKYADSVKGRFTISRDNAKNTAYLQMNSLKPEDTAVYYCTSDPRRGWDTRYWGQGTLVTVSS"
result = "92.6%"

[[record]]
binder = "CX3CR1BIIPMP54B3 (VHH, also called 54B03; not shown: C-terminal c-myc and His6 tags) VHH: EVQLVESGGGSVQAGESLRLSCAASGSIFSSNAMAWYRQAPGKQRDLVAAINSVGITKYADSVKGRFTISRDNAKNTVYLQMNSLKPEDTAVYYCTSDPRRGWDTRYWGQGTQVTVSS"
result = "90.1%"


query: Output % block of CX3CR1BIIPMP61F4 (VHH, tested as periplasmic extract; not shown: C-terminal c-myc and His6 tags) VHH: EVQLVESGGGSVQAGASLRLSCAASGSIFSSNAMAWYRQAPGKQRDLVAVINTVGITKYADSVKGRFTISRDNAKNTVYLQMNSLKPEDTAVYYCTSDARRGWDTRYWGQGTLVTVSS
result: 94.4%
